test.protocol: Growth inhibition of human skin fibroblasts at 100 ug/ml after 72 hrs by MTT assay
Design: species or system Skin fibroblast
measurement.setup: read-out: GI
observation.type: inhibition at 72 h, 100 ug/ml (%)
The response must be a number in % with no trailing unit.

- smiles.notation: "c1cnc2[nH]c(CCC3CCCCC3)nc2c1"
  inhibition at 72 h, 100 ug/ml (%): 41
- smiles.notation: "c1ccc2nc3cc4[nH]c(CCC5CCCCC5)nc4cc3nc2c1"
  inhibition at 72 h, 100 ug/ml (%): 11
- smiles.notation: "Cl.Cl.c1cc2nc(CCC3CCCCC3)[nH]c2cn1"
  inhibition at 72 h, 100 ug/ml (%): 0

[ask] Query: inhibition at 72 h, 100 ug/ml; subject: `O=[N+]([O-])c1cc(Cl)cc2[nH]c(CCC3CCCCC3)nc12`
[reply] 18

[ask] Quick check: inhibition at 72 h, 100 ug/ml of `c1ccc2c(c1)ccc1nc(CCC3CCCCC3)[nH]c12` ?
[reply] 74

[ask] What does the data say about its inhibition at 72 h, 100 ug/ml? Entry: `Brc1cnc2[nH]c(CCC3CCCCC3)nc2c1`
[reply] 100

====

test.protocol: Growth inhibition of human skin fibroblasts at 10 ug/ml after 72 hrs by MTT assay
Design: species or system Skin fibroblast
measurement.setup: read-out: GI
observation.type: inhibition at 72 h, 10 ug/ml (%)
Enter your answer as a number in %; do not include the unit.

Answered cases to consult:
- smiles.notation: "c1cnc2[nH]c(CCC3CCCCC3)nc2c1"
  observation.type: "inhibition at 72 h, 10 ug/ml"
  measurement: 0
- smiles.notation: "c1ccc2nc3cc4[nH]c(CCC5CCCCC5)nc4cc3nc2c1"
  observation.type: "inhibition at 72 h, 10 ug/ml"
  measurement: 0
- smiles.notation: "Brc1cnc2[nH]c(CCC3CCCCC3)nc2c1"
  observation.type: "inhibition at 72 h, 10 ug/ml"
  measurement: 17
- smiles.notation: "O=[N+]([O-])c1cc(Cl)cc2[nH]c(CCC3CCCCC3)nc12"
  observation.type: "inhibition at 72 h, 10 ug/ml"
  measurement: 0

[ask] Can you share its inhibition at 72 h, 10 ug/ml? I mean this compound: `Cl.Cl.c1cc2nc(CCC3CCCCC3)[nH]c2cn1`
[reply] 0

[ask] Sample `c1ccc2c(c1)ccc1nc(CCC3CCCCC3)[nH]c12` — what was its inhibition at 72 h, 10 ug/ml?
[reply] 16

Where do the numbers come from? From ChEMBL document CHEMBL1926666.
